measured-target: CCK2 receptor (Homo sapiens)
Construct: analyzed for ZFP expression as well as CCK2R induction upon addition of doxycycline to the culture medium; endogenous in cells
Sequence (P32239 1-447): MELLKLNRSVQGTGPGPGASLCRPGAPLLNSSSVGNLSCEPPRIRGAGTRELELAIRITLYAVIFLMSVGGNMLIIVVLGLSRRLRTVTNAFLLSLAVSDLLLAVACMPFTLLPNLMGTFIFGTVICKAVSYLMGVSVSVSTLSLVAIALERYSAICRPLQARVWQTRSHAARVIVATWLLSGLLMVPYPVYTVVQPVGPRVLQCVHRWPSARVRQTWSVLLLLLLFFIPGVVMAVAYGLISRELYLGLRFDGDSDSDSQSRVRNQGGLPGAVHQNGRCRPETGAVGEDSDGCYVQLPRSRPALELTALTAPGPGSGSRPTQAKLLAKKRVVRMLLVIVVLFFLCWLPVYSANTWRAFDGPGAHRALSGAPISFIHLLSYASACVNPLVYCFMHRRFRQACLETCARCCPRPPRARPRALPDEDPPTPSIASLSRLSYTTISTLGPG
assay-protocol: CCK2 binding assay ([125I]-BH-CCK-8S displacement, HEKZFP membranes)
details: membranes of doxycycline-induced HEKZFP cells; 20 pM [125I]-BH-CCK-8S; 60 min at 21±3° C.; read-out: CCK2 pKi (converted)
result-type: Ki
Output should be the measured figure followed by the unit it is expressed in.

In [3]: df
Out[3]:
                                   molecule               measured_target  result_type   result
0  O=C(N[C@@H](Cc1ccc(Cl)cc1)C(=O)O)c1ccc(I)cc1NS(=O)(=O)c1cccc2nsnc12  CCK2 receptor (Homo sapiens)           Ki  39.8 nM
1  Cc1ccc(C(=O)NCC(C)c2ccc(Cl)cc2)c(NS(=O)(=O)c2cccc3nsnc23)c1 (racemic)  CCK2 receptor (Homo sapiens)           Ki   316 nM
2  O=C(N[C@@H](Cc1ccc(Cl)cc1)C(=O)O)c1ccc(I)cc1NS(=O)(=O)c1cccc2nccnc12  CCK2 receptor (Homo sapiens)           Ki  31.6 nM

Next molecule, Ki to be filled in.
# Ki (molecule: O=C(N[C@@H](Cc1ccc(F)c(Br)c1)C(=O)O)c1ccc(I)cc1NS(=O)(=O)c1c(F)cccc1F ) is 79.4 nM
